tested on: HCT-15 colon; experiment: NCI-60 one-dose screen, 48 h (100 = growth as untreated, 0 = no growth, -100 = all killed); conditions: 10 µM unless noted
This is part of a sample that, as a whole, favours compounds with a hit. Of some 83,000 tested, about 20% had one in any assay.
outcome-measure: growth (%)
# number only, unit % dropped from output

// below: answered compounds
COCC(=O)Oc1cc(-c2ccc(C)cc2C)c(OC(=O)COC)c(-c2ccc(C)cc2C)c1
10.2
COCCn1cc(-c2nc(-c3cc4cccnc4n3C)cs2)c2ccccc21
21.5
O=C(Nc1cccnc1Nc1ccccc1)c1cn(Cc2cccc(Oc3ccccc3)c2)nn1
30.5
Nc1cc(Br)cc2c1[nH]c(=O)c1ccccc12
110
Cn1c2ccccc2c2c3c(c4c5cc(Br)ccc5n(C)c4c21)C(=O)N(O)C3=O
21
CCCCO[C@@H]1C=C2[C@H]3CC(C)(C)C(=O)C[C@]3(C(=O)O[C@@H]3O[C@H](CO[C@@H]4O[C@H](CO)[C@@H](OC5OC(C)C(O)C(O)C5O)[C@H](O)[C@H]4O)[C@@H](O)[C@H](O)[C@H]3O)CC[C@@]2(C)[C@]2(C)CC[C@H]3C(C)(C)C(=O)CC[C@]3(C)[C@@H]12 (stereo partly drawn)
54.5

// query In one line, give reported growth of the entry `O=C(/C=C/c1ccccc1)c1ccc(-n2cc(CN3CCN(c4cc5c(cc4F)c(=O)c(C(=O)O)cn5C4CC4)CC3)nn2)cc1` .
// result 91.6

// query Identify the reported growth for the following entry. `CN(C)c1ccc(CNCCO)cc1`
// result 106

Data provenance is PubChem BioAssay (NCI).
